Reported inhibition at 10 µM is given for each of the following compounds.
system: MDA-MB-231 (breast cancer); assay: Antiproliferative activity (CCK-8 cell viability), MDA-MB-231; format: cell-based; conditions: Homo sapiens, Compound concentration: 10 μM, 72 h, read-out: Antiproliferative activity in cancerous cells, MDA-MB-231 (inhibition of cell growth)

Answered cases to consult:
[
  {
    "Chemical string": "CC1=C(CC(=O)O)c2c(F)cc(F)cc2/C1=C\\c1ccc(C(F)(F)F)cc1",
    "Obs value": "30 to 50%"
  },
  {
    "Chemical string": "CC1=C(CC(=O)O)c2cc(F)ccc2/C1=C\\c1cccc(CS(=O)(=O)c2ccc(F)cc2)c1",
    "Obs value": "≥ 50%"
  },
  {
    "Chemical string": "CC1=C(CC(=O)O)c2cc(F)ccc2/C1=C\\c1ccc(S(=O)(=O)c2ccc(F)cc2)cc1",
    "Obs value": "30 to 50%"
  },
  {
    "Chemical string": "CC1=C(CC(=O)O)c2cc(F)ccc2/C1=C\\c1ccc(Oc2ccc(Cl)cc2)cc1C",
    "Obs value": "30 to 50%"
  },
  {
    "Chemical string": "COc1ccc(Oc2cccc(/C=C3/C(C)=C(CC(=O)O)c4cc(F)ccc43)c2)cc1Cl",
    "Obs value": "≥ 50%"
  }
]

Briefly, inhibition at 10 µM measured for CC1=C(CC(=O)O)c2cc(F)ccc2/C1=C/c1ccc(F)cc1OCc1ccccc1 : 30 to 50%

Briefly, inhibition at 10 µM measured for O=C(O)CC1=C(CC2CCCC2)/C(=C/c2cccc(COc3ccccc3)c2)c2ccc(F)cc21 : ≥ 50%

Briefly, inhibition at 10 µM measured for CCCC1=C(CC(=O)O)c2cc(F)ccc2/C1=C\c1ccc(COc2ccccc2)cc1 : ≥ 50%

Briefly, inhibition at 10 µM measured for CC1=C(CC(=O)O)c2cc(F)ccc2/C1=C\c1ccc(COCc2ccccc2)cc1 : ≥ 50%

Briefly, inhibition at 10 µM measured for CC1=C(CC(=O)O)c2cc(Cl)ccc2/C1=C\c1ccc(COc2ccc(F)cc2)cc1 : < 30%

---

test system: A549 (lung adenocarcinoma); assay: Antiproliferative activity (CCK-8 cell viability), A549; assay type: cell-based; details: Homo sapiens, Compound concentration: 10 μM, 72 h, read-out: Antiproliferative activity in cancerous cells, A549 (inhibition of cell growth)
Reported inhibition at 10 µM is given for each of the following compounds.

Answered cases to consult:
[
  {
    "Compound": "CC1=C(CC(=O)O)c2cc(F)ccc2/C1=C\\c1ccc(-c2ccc(Cl)cc2)cc1",
    "inhibition at 10 µM": "< 30%"
  },
  {
    "Compound": "CC1=C(CC(=O)O)c2cc(F)ccc2/C1=C\\c1ccc(CCOc2ccc(F)cc2)cc1",
    "inhibition at 10 µM": "30 to 50%"
  },
  {
    "Compound": "CC1=C(CC(=O)O)c2cc(F)ccc2/C1=C\\c1cccc(CNc2ccccc2)c1",
    "inhibition at 10 µM": "≥ 50%"
  },
  {
    "Compound": "COc1ccc(CCCc2ccc(/C=C3/C(C)=C(CC(=O)O)c4cc(Br)ccc43)cc2)cc1",
    "inhibition at 10 µM": "≥ 50%"
  },
  {
    "Compound": "CC1=C(CC(=O)O)c2cc(I)ccc2/C1=C\\c1ccc(COCc2ccc(F)cc2)cc1",
    "inhibition at 10 µM": "≥ 50%"
  }
]

Briefly, inhibition at 10 µM measured for CCC1=C(CC(=O)O)c2cc(F)ccc2/C1=C\c1cccc(Oc2ccccc2)c1 : ≥ 50%

Briefly, inhibition at 10 µM measured for COc1ccc(Oc2ccc(/C=C3/C(C)=C(CC(=O)O)c4cc(Cl)ccc43)cc2)cc1 : ≥ 50%

Briefly, inhibition at 10 µM measured for CC1=C(CC(=O)O)c2cc(F)ccc2/C1=C\c1ccc(CCCc2ccc(F)cc2)cc1 : ≥ 50%

---

test system: A431 (epidermoid carcinoma); assay: Antiproliferative activity (CCK-8 cell viability), A431; type: cell-based; details: Homo sapiens, A-431, Compound concentration: 10 μM, 72 h, read-out: Antiproliferative activity in cancerous cells, A431 (inhibition of cell growth)
Reported inhibition at 10 µM is given for each of the following compounds.

[
  {
    "Chemical string": "CC1=C(CC(=O)O)c2cc(C)ccc2/C1=C\\c1cccc(COc2ccccc2)c1",
    "inhibition at 10 µM": "≥ 50%"
  }
]

Briefly, inhibition at 10 µM measured for CC1=C(CC(=O)O)c2c(F)ccc(F)c2/C1=C/c1ccc(C(C)C)cc1 : 30 to 50%

Briefly, inhibition at 10 µM measured for O=C(O)CC1=C(Cc2ccc(Oc3ccc(F)cc3)cc2)/C(=C/c2cccc(C(F)(F)F)c2)c2ccc(F)cc21 : ≥ 50%

Briefly, inhibition at 10 µM measured for CCCC1=C(CC(=O)O)c2cc(F)ccc2/C1=C\c1cccc(COc2ccccc2)c1 : ≥ 50%

---

Test system: A549 (lung adenocarcinoma)
Assay: Antiproliferative activity (CCK-8 cell viability), A549
Type: cell-based
Settings: Homo sapiens, Compound concentration: 30 μM, 72 h, read-out: Antiproliferative activity in cancerous cells, A549
Protocol: The antiproliferative activity of a compound was determined in the following cell lines: MDA-MB-231 (breast cancer), HepG2 (liver cancer), SW480 (colon cancer), B16F10 (malignant melanoma), A431 (epidermoid carcinoma), A549 (lung adenocarcinoma), and HeLa (cervical cancer). […] Briefly cells were seeded in a 96-well plate at a density of 2,000-5,000 cells/well. […] After incubation at 37° C. for 4 h, the absorbance value of each well was determined using a multi-well plate reader at 450 nm. […]
Reported inhibition at 30 µM is given for each of the following compounds.

[
  {
    "Chemical string": "COc1ccc2c(c1)C(CC(=O)O)=C(C)/C2=C/c1cccc(COc2ccccc2)c1",
    "inhibition at 30 µM": "< 30%"
  },
  {
    "Chemical string": "CC1=C(CC(=O)O)c2cc(C)ccc2/C1=C\\c1ccc(COc2ccc(C(F)(F)F)cc2)cc1",
    "inhibition at 30 µM": "30 to 50%"
  },
  {
    "Chemical string": "COc1ccc2c(c1)C(CC(=O)O)=C(C)/C2=C/c1ccc(COc2ccc(F)cc2)cc1",
    "inhibition at 30 µM": "30 to 50%"
  }
]

The observed inhibition at 30 µM for CC1=C(CC(=O)O)c2cc(C)ccc2/C1=C\c1ccc(COc2ccccc2)cc1 when tested with A549 (lung adenocarcinoma) stands at 30 to 50%

The observed inhibition at 30 µM for CCc1ccc2c(c1)/C(=C\c1ccc(COc3ccccc3)cc1)C(C)=C2CC(=O)O when tested with A549 (lung adenocarcinoma) stands at 30 to 50%

---

test system: A549 (lung adenocarcinoma); test: Antiproliferative activity (CCK-8 cell viability), A549; type: cell-based; conditions: Homo sapiens, Compound concentration: 10 μM, 72 h, read-out: Antiproliferative activity in cancerous cells, A549 (inhibition of cell growth)
Endpoint name: inhibition at 10 µM

Answered cases to consult:
[
  {
    "Compound": "CC1=C(CC(=O)O)c2cc(F)ccc2/C1=C\\c1ccc(CSc2nc3ccccc3[nH]2)cc1 [B44]",
    "Obs value": "≥ 50%"
  },
  {
    "Compound": "CC1=C(CC(=O)O)c2cc(I)ccc2/C1=C/c1ccc(COCc2ccc(F)cc2)cc1 [E18]",
    "Obs value": "≥ 50%"
  },
  {
    "Compound": "CC1=C(CC(=O)O)c2cc(F)ccc2/C1=C\\c1ccc(C2(c3ccccc3)SCCS2)cc1 [C353]",
    "Obs value": "≥ 50%"
  },
  {
    "Compound": "CC1=C(CC(=O)O)c2cc(Cl)ccc2/C1=C\\c1ccc(Oc2ccc(C(C)C)cc2)cc1 [C84]",
    "Obs value": "≥ 50%"
  },
  {
    "Compound": "CC1=C(CC(=O)O)c2cc(F)ccc2/C1=C/c1ccc(Oc2ccc(F)cc2F)cc1 [E17]",
    "Obs value": "≥ 50%"
  }
]

Briefly, inhibition at 10 µM measured for CC1=C(CC(=O)O)c2cc(F)ccc2/C1=C\c1cccc(Sc2ccc(F)cc2)c1 [C42] : ≥ 50%

Briefly, inhibition at 10 µM measured for CC1=C(CC(=O)O)c2cc(F)ccc2/C1=C\c1ccc(OC2CCN(C(=O)OC(C)(C)C)CC2)cc1 [C201] : ≥ 50%

Briefly, inhibition at 10 µM measured for CCc1ccc2c(c1)C(CC(=O)O)=C(C)/C2=C/c1ccc(Oc2ccc(F)cc2)cc1 [C5] : 30 to 50%

Briefly, inhibition at 10 µM measured for CC1=C(CC(=O)O)c2c(F)cc(F)cc2/C1=C\c1ccc(C(F)(F)F)cc1 [D5] : ≥ 50%

Briefly, inhibition at 10 µM measured for CC1=C(CC(=O)O)c2cc(F)ccc2/C1=C\c1cccc(Oc2ccc(C)cc2)c1 [C96] : ≥ 50%

Briefly, inhibition at 10 µM measured for CC1=C(CC(=O)O)c2cc(C)ccc2/C1=C\c1ccc(COc2ccccc2)cc1 [B4] : 30 to 50%

Briefly, inhibition at 10 µM measured for CC1=C(CC(=O)O)c2cc(F)ccc2/C1=C\c1ccc(Oc2ccc(Cl)cc2F)cc1 [C52] : ≥ 50%

Briefly, inhibition at 10 µM measured for CC1=C(CC(=O)O)c2cc(F)ccc2/C1=C\c1ccc(Oc2ccc(Cl)nc2)cc1 [C65] : ≥ 50%
